test system: Vero cells; conditions: African green monkey, 72 h
Listed next: entries and their corresponding Vero Tox CC50.
I only need the number, in mg/L, no unit after it.

{"columns": ["molecule", "scale.unit", "Vero Tox CC50"],
 "data": [
  ["CC(C)(C)Nc1n[n+]([O-])c2ccccc2[n+]1[O-] [Compound 8c]", "mg/L", 8.0]
]}

Any idea what Vero Tox CC50 came out for [O-][n+]1nc(NC2CC2)[n+]([O-])c2ccc(Cl)cc21 [Compound 15bb] on Vero cells?
1.3

---

tested on: Vero cells; experiment: Cytotoxicity against Vero cells (Cell Titer-Glo); details: 72 h; Tables 1-4 and text
experimental.readout: Vero Tox CC50 (µg/mL)
I only need the number, in µg/mL, no unit after it.

{"columns": ["compound", "experimental.readout", "scale.unit", "endpoint.result"],
 "data": [
  ["Nc1n[n+]([O-])c2ccccc2[n+]1[O-] [TPZ, tirapazamine, reference compound]", "Vero Tox CC50", "µg/mL", 8.0]
]}

Which Vero Tox CC50 is listed for O=C1CN(/N=C/c2ccc([N+](=O)[O-])o2)C(=O)N1 [Nitrofurantoin, reference compound] ?
23

Which Vero Tox CC50 is listed for [O-][n+]1nc(N2CCCC2)[n+]([O-])c2cc3c(cc21)CCC3 [Compound 20q] ?
25

Where do the numbers come from? From patent US9663478B2.
